assay notes: soluble on expression in E. coli; label from the status in PepcDB or PDB records
quantity name: soluble on expression in E. coli

- MNVIEGVVATPNARVAIAIARFNNFINDSLLDGAIDALKRIGQVSDDNITVVWVPGAYELPLVANVLAKTNRYDAVIALGTVIRGGTAHFEYVAGEASSGLSSVAMNSDIPVAFGVLTTESIEQAIERAGTKAGNKGAEAALTALEMINVIKAIKG: not soluble
- MAKILVLYYSMYGHIETMAHAVAEGAKKVDGAEVIIKRVPETMPPEIFAKAGGKTQNAPVATPQELADYDAIIFGTPTRFGNMSGQMRTFLDQTGGLWASGSLYGKLGSVFSSTGTGGGQEQTITSTWTTLAHHGMVIVPIGYAAQELFDVSQVRGGTPYGATTIAGGDGSRQPSQEELSIARYQGEYVAGLAVKLNG: not soluble
- MSRSKKSRKPGTNSNDQLVVVRTRSESELESRLRKKLKKRKGLKSGSRHSEGSESQVRQAAQKRDPRLGSKKPIPLIVAEPKKLNKQERKLAAEQELAMLEKDAQLNVLLDRLDNGEKLGIGLQKYVDEKLDRIEVLMEQLGLLDDEPEPAPAPQSKPTKKRKTEDDLLSEFEQLDVDKYQD: not soluble
- LTSKLVQAGANVKVIMTESACRFVSPLTFQALSRHEVYTDTFKEQNPSVISHIDAADWADLIIVAPATANVIGKLANGIADDMLTTTLLAATAPVWIAPAMNVHMYDHPAVKRNISVLYQDGYCFIEPSEGYLACGYVGKGRLEEPENIVKLAEKHFAEETSAPLEGKHVVITAGPTREAIDPVRFFTNKSTGKMGYALAEAAVQLGARVILISGPVSLDQPKGLAEFIPVQSAADMREAVLSVYDASDIVIKTAAVADFTPKTVFDHKMKKQDGGMTLELKRTVDILKELGEKKKEQILVGFAAETQDIEHYARKKLAAKNLDLIVANDVKANGAGFGADTNIVTIFFKDGHKRELPIMSKLDVSFEILQEIAALSKQTGERS: not soluble
- VSEEELKLILAGAEESGAIEPQEEEMIHSILELEETPVREIMTPRVEMVAIEDEATLEDLLALYREHRYSRVPVYRESVDHIVGVAYVQDLLTYYCEEDLKAFKVASIAHPPYFVPENMDAWSLLKELRRRKVHMAIVVDEFGGTAGLVTLEDVIEEIVGEI: not soluble
- MERFDAVIIGAGAAGMFCAAQAGQAGSRVLLIDNGKKPGRKILMSGGGRCNFTNLYVEPAAYLSQNPHFCKSALARYTQWDFIDLVGRYGIAWHEKTLGQLFCDDSAQRIVDMLVAECDKGGVTMRLRSEVLSVERDESGFVLALNGETVTTQKLVIASGGLSMPGLGASPFGYKIAEQFGLKVLPTRAGLVPFTLHKPLLEQLQTLSGVSVPCVITARNGTVFRENLLFTHRGLSGPAVLQISSYWQPGELVSINLLPDLSLEDVLNEQRNAHPNQSLKNTLAMHLPKRLVECLQQLGLIPDVSLRQLNVRDQQTLVDTLTAWQVQPNGTEGYRTAEVTLGGVDTNELSSRTMEARRVPGLYFIGEVMDVTGWLGGYNFQWAWSSAWACAQDLIALKIN: soluble
- SALDTNYCFRNLEENCCVRPLYIDFRQDLGWKWVHEPKGYYANFCSGPCPYLRSADTTHSTVLGLYNTLNPEASASPCCVPQDLEPLTILYYVGRTPKVEQLSNMVVKSCKCS: soluble
